As an illustration, consider measured AC50 for compounds on Vasopressin V2 receptor (Homo sapiens, UniProt P30518).
Sequence (P30518 whole entry): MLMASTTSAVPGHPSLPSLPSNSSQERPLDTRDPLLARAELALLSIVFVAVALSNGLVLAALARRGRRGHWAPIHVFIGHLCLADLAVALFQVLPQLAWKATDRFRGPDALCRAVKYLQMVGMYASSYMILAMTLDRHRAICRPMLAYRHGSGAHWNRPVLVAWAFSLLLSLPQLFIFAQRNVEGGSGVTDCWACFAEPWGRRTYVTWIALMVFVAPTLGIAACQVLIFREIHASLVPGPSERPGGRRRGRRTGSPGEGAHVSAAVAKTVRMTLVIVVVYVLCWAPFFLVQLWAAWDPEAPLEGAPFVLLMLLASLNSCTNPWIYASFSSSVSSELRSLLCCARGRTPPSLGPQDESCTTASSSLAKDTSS

{"compound": "[H]/N=C(\\N/C(=N/[H])NCCCCCCNC(=N)NC(=N)Nc1ccc(Cl)cc1)Nc1ccc(Cl)cc1 [CHLORHEXIDINE]", "experimental system": "Vasopressin V2 receptor (Homo sapiens, UniProt P30518)", "AC50": "3.9 µM"}
{"compound": "N#C[C@@H]1CCCN1C(=O)CNC12CC3CC(CC(O)(C3)C1)C2 [VILDAGLIPTIN]", "experimental system": "Vasopressin V2 receptor (Homo sapiens, UniProt P30518)", "AC50": "> 30 µM"}
{"compound": "C[C@@H]1CCC[C@H](C)N1NC(=O)c1ccc(Cl)c(S(N)(=O)=O)c1 [CLOPAMIDE]", "experimental system": "Vasopressin V2 receptor (Homo sapiens, UniProt P30518)", "AC50": "> 30 µM"}
{"compound": "O=C1NC(=O)C(c2ccccc2)(c2ccccc2)N1 [PHENYTOIN]", "experimental system": "Vasopressin V2 receptor (Homo sapiens, UniProt P30518)", "AC50": "> 30 µM"}
